Target: T1, LILRB2 (human, UniProt Q8N423 22-458, limits assumed)
T1 construct: also called leukocyte immunoglobulin-like receptor subfamily B member 2
T1 sequence (Q8N423 22-458 limits assumed): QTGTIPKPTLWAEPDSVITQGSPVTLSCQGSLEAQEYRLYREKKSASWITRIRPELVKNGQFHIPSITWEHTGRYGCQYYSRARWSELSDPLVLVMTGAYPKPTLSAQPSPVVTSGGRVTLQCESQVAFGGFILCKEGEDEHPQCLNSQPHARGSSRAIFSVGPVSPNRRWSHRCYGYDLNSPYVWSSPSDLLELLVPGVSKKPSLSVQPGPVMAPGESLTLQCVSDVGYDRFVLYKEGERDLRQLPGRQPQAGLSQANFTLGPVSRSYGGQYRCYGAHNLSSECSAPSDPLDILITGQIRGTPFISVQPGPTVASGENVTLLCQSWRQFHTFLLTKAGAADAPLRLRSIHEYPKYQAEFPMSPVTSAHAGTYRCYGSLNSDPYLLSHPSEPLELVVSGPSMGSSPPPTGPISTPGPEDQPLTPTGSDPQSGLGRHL
Experiment: cross-reactivity test on the LILRBs (ELISA per paragraph 433)
OBSERVATION TYPE: binding result

anti-LILRB4 rabbit monoclonal antibody #210 (antibody, V domains shown) VH: EQSVEESGGRLVTPGTPLTLTCTVSGFSLSSYIMGWVRQARGKGLEYIGAINTDGATYYATWAKGRFTISRTSTTVHLKVTSPTTEDTATYFCARSLAPGDSNINLWGQGTLVTISS VL: ELVLTQTPSPVSAAVGGTVTISCQSSESVYRNNRLAWYQQKPGQPPKRLIYLASTLASGVPSRFKGSGSGTQFTLTISDVQCDDAAAYYCAGDSGVGIIAFGGGTEVEIK : no binding
anti-LILRB4 rabbit monoclonal antibody #128-3 (antibody, V domains shown) VH: EQSLEESGGDLVTPGASLTLTCKASGIDFSNHYYIYWVRQAPGKGLEWIGCIFSGDSASTYYASWAKGRFTISKSSSPTVTLQMTSLTAADTATYFCARGMSTNDWASDLWGPGTMVTVSS VL: ELVMTQTPASVSAAVGGTVTINCQASESINSIYLAWYQQKPGQRPKLLIYRASTLASGVSSRFKGSASGTGFTLTISDLECADAATYYCQQSYDWGDVENTFGGGTEVEIK : no binding
anti-LILRB4 rabbit monoclonal antibody #8 (antibody, V domains shown, also called mAb 8) VH: QSVKESGGGLVTPGGTLTLTCTASGFSLISYDMYWVRQAPGKGLEYIGIIYSDGYTFYATGAKGRITISRTSTTVDLKITSPTTEDTATYFCATNAFALWGQGTLVTISS VL: ELDLTQTPSSVSAAVGGTVTISCQSSQNVYNNNWLVWLQQKPGQPPKRLIYTASSLASGVPSRFAGSGSATQFTLTISDLECGDAATYYCAGGYSGPIYTFGGGTEVEIK : no binding
anti-LILRB4 rabbit monoclonal antibody #129 (antibody, V domains shown) VH: EQSVKESGGGLVKPGASLTLTCTASGFSFSSSYHMCWVRQAPGKGLEWIGCIATGYGSTYYASWAKGRFTISKTSSTTVTLQVPSLTAADTATCFCARGYYRYTSDSYGYFDLWGPGTLVTISS VL: ELVLTQTASPVSAAVGGTVTVNCQASQSISSGYLSWYQQKPGQPPKLLIYYASRLASGVPSRFSGSGSGTEYTLTISGVQCDDAATYYCLYVSYDGTTTDNAFGGGTEVEIK : no binding
